Data origin: BigSolDB 2.1

condition.details: in ethyl acetate, 313.2 K
parameter.measured: solubility (mole fraction)
Form field (numeric): enter value without unit.

If you can, please state the reported solubility (mole fraction) value of `COC(=O)[C@@H](N)Cc1c[nH]c2ccccc12.Cl` . 0.000174

====

condition.details: in water, 288.2 K
parameter.measured: solubility (mole fraction)
Form field (numeric): enter value without unit.

If you can, please state the reported solubility (mole fraction) value of `COC(=O)[C@@H](N)Cc1c[nH]c2ccccc12.Cl` . 0.00951

====

condition.details: in n-butanol, 288.2 K
parameter.measured: solubility (mole fraction)
Form field (numeric): enter value without unit.

If you can, please state the reported solubility (mole fraction) value of `COC(=O)[C@@H](N)Cc1c[nH]c2ccccc12.Cl` . 0.00231

====

condition.details: in acetonitrile, 283.2 K
parameter.measured: solubility (mole fraction)
Form field (numeric): enter value without unit.

If you can, please state the reported solubility (mole fraction) value of `COC(=O)[C@@H](N)Cc1c[nH]c2ccccc12.Cl` . 3.75e-05

====

condition.details: in ethanol, 298.2 K
parameter.measured: solubility (mole fraction)

If you can, please state the reported solubility (mole fraction) value of `COC(=O)[C@@H](N)Cc1c[nH]c2ccccc12.Cl` . 0.00737

====

condition.details: in water, 308.2 K
parameter.measured: solubility (mole fraction)
Form field (numeric): enter value without unit.

If you can, please state the reported solubility (mole fraction) value of `COC(=O)[C@@H](N)Cc1c[nH]c2ccccc12.Cl` . 0.0175

====

condition.details: in ethanol, 308.2 K
parameter.measured: solubility (mole fraction)
Form field (numeric): enter value without unit.

If you can, please state the reported solubility (mole fraction) value of `COC(=O)[C@@H](N)Cc1c[nH]c2ccccc12.Cl` . 0.00885

====

condition.details: in n-butanol, 323.2 K
parameter.measured: solubility (mole fraction)
Form field (numeric): enter value without unit.

If you can, please state the reported solubility (mole fraction) value of `COC(=O)[C@@H](N)Cc1c[nH]c2ccccc12.Cl` . 0.00385

====

condition.details: in isobutanol, 323.2 K
parameter.measured: solubility (mole fraction)

If you can, please state the reported solubility (mole fraction) value of `COC(=O)[C@@H](N)Cc1c[nH]c2ccccc12.Cl` . 0.00374

====

condition.details: in isobutanol, 303.2 K
parameter.measured: solubility (mole fraction)
Form field (numeric): enter value without unit.

If you can, please state the reported solubility (mole fraction) value of `COC(=O)[C@@H](N)Cc1c[nH]c2ccccc12.Cl` . 0.00205

====

condition.details: in isopropanol, 318.2 K
parameter.measured: solubility (mole fraction)
Form field (numeric): enter value without unit.

If you can, please state the reported solubility (mole fraction) value of `COC(=O)[C@@H](N)Cc1c[nH]c2ccccc12.Cl` . 0.00241

====

condition.details: in n-butanol, 313.2 K
parameter.measured: solubility (mole fraction)
Form field (numeric): enter value without unit.

If you can, please state the reported solubility (mole fraction) value of `COC(=O)[C@@H](N)Cc1c[nH]c2ccccc12.Cl` . 0.00327

====

condition.details: in n-propanol, 288.2 K
parameter.measured: solubility (mole fraction)
Form field (numeric): enter value without unit.

If you can, please state the reported solubility (mole fraction) value of `COC(=O)[C@@H](N)Cc1c[nH]c2ccccc12.Cl` . 0.00322

====

condition.details: in methanol, 303.2 K
parameter.measured: solubility (mole fraction)

If you can, please state the reported solubility (mole fraction) value of `COC(=O)[C@@H](N)Cc1c[nH]c2ccccc12.Cl` . 0.0354

====

condition.details: in sec-butanol, 303.2 K
parameter.measured: solubility (mole fraction)
Form field (numeric): enter value without unit.

If you can, please state the reported solubility (mole fraction) value of `COC(=O)[C@@H](N)Cc1c[nH]c2ccccc12.Cl` . 0.00183

====

condition.details: in ethyl acetate, 288.2 K
parameter.measured: solubility (mole fraction)
Form field (numeric): enter value without unit.

If you can, please state the reported solubility (mole fraction) value of `COC(=O)[C@@H](N)Cc1c[nH]c2ccccc12.Cl` . 4.86e-05

====

condition.details: in n-propanol, 313.2 K
parameter.measured: solubility (mole fraction)
Form field (numeric): enter value without unit.

If you can, please state the reported solubility (mole fraction) value of `COC(=O)[C@@H](N)Cc1c[nH]c2ccccc12.Cl` . 0.00465

====

condition.details: in isobutanol, 313.2 K
parameter.measured: solubility (mole fraction)

If you can, please state the reported solubility (mole fraction) value of `COC(=O)[C@@H](N)Cc1c[nH]c2ccccc12.Cl` . 0.00281

====

condition.details: in isopropanol, 293.2 K
parameter.measured: solubility (mole fraction)
Form field (numeric): enter value without unit.

If you can, please state the reported solubility (mole fraction) value of `COC(=O)[C@@H](N)Cc1c[nH]c2ccccc12.Cl` . 0.00135

====

condition.details: in sec-butanol, 298.2 K
parameter.measured: solubility (mole fraction)

If you can, please state the reported solubility (mole fraction) value of `COC(=O)[C@@H](N)Cc1c[nH]c2ccccc12.Cl` . 0.00165

====

condition.details: in ethanol, 288.2 K
parameter.measured: solubility (mole fraction)

If you can, please state the reported solubility (mole fraction) value of `COC(=O)[C@@H](N)Cc1c[nH]c2ccccc12.Cl` . 0.00634

====

condition.details: in acetone, 308.2 K
parameter.measured: solubility (mole fraction)
Form field (numeric): enter value without unit.

If you can, please state the reported solubility (mole fraction) value of `COC(=O)[C@@H](N)Cc1c[nH]c2ccccc12.Cl` . 0.00104

====

condition.details: in n-propanol, 303.2 K
parameter.measured: solubility (mole fraction)
Form field (numeric): enter value without unit.

If you can, please state the reported solubility (mole fraction) value of `COC(=O)[C@@H](N)Cc1c[nH]c2ccccc12.Cl` . 0.00401

====

condition.details: in ethyl acetate, 303.2 K
parameter.measured: solubility (mole fraction)
Form field (numeric): enter value without unit.

If you can, please state the reported solubility (mole fraction) value of `COC(=O)[C@@H](N)Cc1c[nH]c2ccccc12.Cl` . 0.000101

====

condition.details: in methanol, 318.2 K
parameter.measured: solubility (mole fraction)
Form field (numeric): enter value without unit.

If you can, please state the reported solubility (mole fraction) value of `COC(=O)[C@@H](N)Cc1c[nH]c2ccccc12.Cl` . 0.0437
